# System name: human B1R receptor (Homo sapiens, UniProt P46663)
# Construct: host or cells: CHO K1 cells (Chinese hamster ovary), stably transfected
# Sequence (P46663 whole entry): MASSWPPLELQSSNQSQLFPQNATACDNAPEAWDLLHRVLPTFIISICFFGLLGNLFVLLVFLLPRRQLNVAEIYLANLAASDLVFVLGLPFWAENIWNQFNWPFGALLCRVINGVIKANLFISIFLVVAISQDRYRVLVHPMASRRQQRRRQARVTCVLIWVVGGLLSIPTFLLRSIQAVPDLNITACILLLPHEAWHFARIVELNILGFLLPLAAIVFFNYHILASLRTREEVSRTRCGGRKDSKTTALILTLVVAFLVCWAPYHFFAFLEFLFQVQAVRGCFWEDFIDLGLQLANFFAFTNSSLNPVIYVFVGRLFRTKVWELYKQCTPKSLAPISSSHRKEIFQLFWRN
# Experiment summary: Functional study on the bradykinin receptor 1 (B1R), FLIPR Ca2+ assay, hB1R cells
# Assay type: cell-based
# Condition notes: CHO-K1, test substance 10 μM, agonist Lys-Des-Arg9-bradykinin 0.5 nM, % inhibition compared with the maximum achievable inhibition, read-out: B1R Antagonism, human [10 μM] % Inhibition
# Text: The agonistic or antagonistic action of substances can be quantified on the bradykinin receptor 1 (B1R) of the species human and rat with ectopically expressing cell lines (CHO K1 cells) and with the aid of a Ca^2+-sensitive dye (Fluo-4) using a fluorescent imaging plate reader (FLIPR). […] The agonistic or antagonistic action of substances can be determined on the bradykinin receptor 1 (B1R) of the species human and rat using the following assay. […]
Property label: inhibition at 10 µM (%)
Numbers only, in %.

Answered cases to consult:
O=C(COCC1CCCN1S(=O)(=O)c1c(Cl)cc(Cl)cc1Cl)NCc1ccc(CN2CCOCC2)cc1 (stereo not shown): 65.9
COc1cc(C)c(S(=O)(=O)N2CCCCC2COCC(=O)NCc2cccnc2)c(C)c1 (stereo not shown): 22.3
CC(C)N(CCN1CCN(C(=O)COCC2CCCN2S(=O)(=O)c2c(Cl)cc(Cl)cc2Cl)CC1)C(C)C (stereo not shown): 107

Now examine the next entry.
Entry COc1cc(C)c(S(=O)(=O)N2CCCC2COCC(=O)N2CC[C@@H](N(C)C)C2)c(C)c1 (stereo partly shown) , system human B1R receptor (Homo sapiens, UniProt P46663): what inhibition at 10 µM was measured?
90.1
